# EXPERIMENT NOTES: folding enthalpy; higher = less favourable; fluorescence melt of hairpins on a sequencing array, two-state fit
# CONDITION: sodium 0.088 M
Items are presented alongside their recorded folding enthalpy.
Field format: number, assumed kcal/mol, no unit text.

Problem: I have this sequence here, GCGTGGCGAAAGCAATGC ((.(.((....)).).)) , and I need its recorded folding enthalpy.
Solution: -19.6

Problem: I have this sequence here, GACTACGAAAGTATGTC ((((((....))).))) , and I need its recorded folding enthalpy.
Solution: -26.2

Problem: I have this sequence here, GGCCAGCGAAAGCTCGCC (((.(((....))).))) , and I need its recorded folding enthalpy.
Solution: -38.9

Problem: I have this sequence here, GATCGATGTTCGATC ((((((...)))))) , and I need its recorded folding enthalpy.
Solution: -29.4

Problem: I have this sequence here, GGGTACGGAAACGTATCC ((.((((....)))).)) , and I need its recorded folding enthalpy.
Solution: -30.1

Problem: I have this sequence here, GCAGTCCCGAAAGGGTGC (((..(((....)))))) , and I need its recorded folding enthalpy.
Solution: -15.3

Others:
Problem: I have this sequence here, GCTCACACGAAAGTGAGC (((..(((....)))))) , and I need its recorded folding enthalpy.
Solution: -32
